// data source = ChEMBL document CHEMBL4229471

Task for the reader: assign each of the following molecules its reported pIC50.
- studySystem: Cathepsin B (Homo sapiens)
FYI, pIC50 means -log10 of a concentration in mol per litre.

Req: # pIC50 lookup, item `CCOC(=O)/C=C/C(=O)[C@H](CCc1ccccc1)NC(=O)[C@H](CC(C)C)NC(=O)N1CCOCC1`
Resp: 6.85

Req: Can you share its pIC50? I mean this molecule: `CCOC(=O)/C=C/C(=O)[C@H](CC(C)C)NC(=O)[C@H](Cc1ccccc1)NC(=O)OCc1ccccc1`
Resp: 7.30

Req: Look up pIC50 for this molecule: `CCOC(=O)/C=C/C(=O)[C@H](CC(C)C)NC(=O)[C@H](CC(C)C)NC(=O)N1CCOCC1`
Resp: 7.05

Req: // query pIC50 value for entry `CCOC(=O)/C=C/C(=O)[C@H](CCc1ccccc1)NC(=O)[C@H](Cc1ccccc1)NC(=O)N1CCOCC1`
Resp: 7.15

###

- studySystem: UniProt:P07711
- Sequence (P07711 114-333 limits assumed): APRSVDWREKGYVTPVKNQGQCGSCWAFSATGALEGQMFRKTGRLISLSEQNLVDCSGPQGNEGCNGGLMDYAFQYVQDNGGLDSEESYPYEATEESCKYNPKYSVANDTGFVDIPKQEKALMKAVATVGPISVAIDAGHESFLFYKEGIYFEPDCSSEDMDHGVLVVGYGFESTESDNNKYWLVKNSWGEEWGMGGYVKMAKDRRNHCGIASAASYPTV
- assayProtocol: Inhibition of human cathepsin L assessed as second order rate constant using Cbz-Phe-Arg-AMC as substrate
measurementType: K (M⁻¹ s⁻¹)
Just the number in M⁻¹ s⁻¹, nothing appended.

Req: Bench note: what K did `CCOC(=O)/C=C/C(=O)[C@H](CC(C)C)NC(=O)[C@H](CC(C)C)NC(=O)N1CCOCC1` show?
Resp: 52200

Req: Quick one: K for `CCOC(=O)/C=C/C(=O)[C@H](CCc1ccccc1)NC(=O)[C@H](Cc1ccccc1)NC(=O)N1CCOCC1` ?
Resp: 28500

Req: Record request: K value, item `CCOC(=O)/C=C/C(=O)[C@H](CCc1ccccc1)NC(=O)[C@H](Cc1ccccc1)NC(=O)OCc1ccccc1`
Resp: 45300

###

Answer each item with its documented pIC50.
// pIC50 is dimensionless: -log10 of concentration (M)

Req: Give Cruzipain (Trypanosoma cruzi) pIC50 for `CCOC(=O)/C=C/C(=O)[C@H](CCc1ccccc1)NC(=O)[C@H](CC(C)C)NC(=O)N1CCOCC1`
Resp: 6.47

Req: Fill in the recorded pIC50 for this molecule, with Cruzipain (Trypanosoma cruzi) as test system: `CCOC(=O)/C=C/C(=O)[C@H](CCc1ccccc1)NC(=O)[C@H](CC(C)C)NC(=O)OCc1ccccc1`
Sequence (P25779 whole entry): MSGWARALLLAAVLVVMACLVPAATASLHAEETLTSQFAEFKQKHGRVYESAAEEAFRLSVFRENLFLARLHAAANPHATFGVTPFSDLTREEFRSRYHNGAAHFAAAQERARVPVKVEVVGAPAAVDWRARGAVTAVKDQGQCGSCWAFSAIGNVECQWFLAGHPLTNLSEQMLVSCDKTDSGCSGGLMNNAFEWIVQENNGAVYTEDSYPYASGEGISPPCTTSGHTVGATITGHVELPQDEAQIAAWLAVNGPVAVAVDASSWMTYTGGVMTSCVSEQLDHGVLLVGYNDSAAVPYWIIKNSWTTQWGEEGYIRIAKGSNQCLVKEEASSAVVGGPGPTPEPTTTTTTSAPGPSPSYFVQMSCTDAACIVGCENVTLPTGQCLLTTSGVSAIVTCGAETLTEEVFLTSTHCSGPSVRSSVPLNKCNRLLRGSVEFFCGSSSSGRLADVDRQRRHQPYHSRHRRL
Resp: 7.10

Req: Recall the recorded pIC50 for `CCOC(=O)/C=C/C(=O)[C@@H](CCc1ccccc1)NC(=O)[C@H](Cc1ccccc1)NC(=O)N1CCOCC1` with Cruzipain (Trypanosoma cruzi) and state it.
Resp: 6.48

Req: Find the measured pIC50: item `CCOC(=O)/C=C/C(=O)[C@H](CC(C)C)NC(=O)[C@H](CC(C)C)NC(=O)N1CCOCC1` , target or system Cruzipain (Trypanosoma cruzi).
Resp: 6.70

###

- studySystem: UniProt Q95PM0
- Sequence (Q95PM0 1-450): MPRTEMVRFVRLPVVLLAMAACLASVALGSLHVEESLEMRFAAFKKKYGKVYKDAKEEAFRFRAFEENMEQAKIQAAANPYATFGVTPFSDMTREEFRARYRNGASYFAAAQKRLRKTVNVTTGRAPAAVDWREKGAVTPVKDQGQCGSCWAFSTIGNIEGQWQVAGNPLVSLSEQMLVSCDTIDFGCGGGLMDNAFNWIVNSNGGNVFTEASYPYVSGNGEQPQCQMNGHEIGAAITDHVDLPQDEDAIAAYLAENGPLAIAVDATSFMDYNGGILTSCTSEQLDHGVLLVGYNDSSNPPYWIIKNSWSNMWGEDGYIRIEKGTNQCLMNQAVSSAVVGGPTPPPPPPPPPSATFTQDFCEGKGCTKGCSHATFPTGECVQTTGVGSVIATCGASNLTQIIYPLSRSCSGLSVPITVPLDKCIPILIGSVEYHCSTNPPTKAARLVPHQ
- assayProtocol: Inhibition of Trypanosoma brucei rhodesiense rhodesain assessed as second-order rate constant using Cbz-Phe-Arg-AMC as substrate measured for 30 mins by fluorescence method
Grouping key: K. Bins: low: < 60000 M⁻¹ s⁻¹; moderate: ≥ 60000 M⁻¹ s⁻¹ and < 300000 M⁻¹ s⁻¹; high: ≥ 300000 M⁻¹ s⁻¹

Req: Category of `CCOC(=O)/C=C/C(=O)[C@H](CCc1ccccc1)NC(=O)[C@H](CC(C)C)NC(=O)N1CCOCC1` , please.
Resp: moderate

Req: Lab note: sort `CCOC(=O)/C=C/[C@@H](O)[C@H](CCc1ccccc1)NC(=O)[C@H](Cc1ccccc1)NC(=O)N1CCOCC1` into the matching K band.
Resp: low

Req: Exercise: read the entry `CCOC(=O)/C=C/C(=O)[C@@H](CCc1ccccc1)NC(=O)[C@H](Cc1ccccc1)NC(=O)N1CCOCC1` and state which class it falls under.
Resp: moderate

Req: Band for the recorded K of `CCOC(=O)/C=C/C(=O)[C@H](CCc1ccccc1)NC(=O)[C@H](CC(C)C)NC(=O)OCc1ccccc1` ?
Resp: moderate

Req: Please let me know in which category the item `CCOC(=O)/C=C/C(=O)[C@H](C)NC(=O)[C@H](Cc1ccccc1)NC(=O)OCc1ccccc1` belongs.
Resp: low

Req: Would you mind sorting `CCOC(=O)/C=C/C(=O)[C@H](CC(C)C)NC(=O)[C@H](CC(C)C)NC(=O)N1CCOCC1` into the appropriate category?
Resp: high

Req: Bin this entry: `CCOC(=O)/C=C/C(=O)[C@H](CCc1ccccc1)NC(=O)[C@H](Cc1ccccc1)NC(=O)N1CCOCC1`
Resp: moderate

Req: Field: class (K) — entry: `CCOC(=O)/C=C/C(=O)[C@H](CC(C)C)NC(=O)[C@H](Cc1ccccc1)NC(=O)OCc1ccccc1`
Resp: high

Req: Field: class (K) — entry: `CCOC(=O)/C=C/C(=O)[C@@H](CC(C)C)NC(=O)[C@H](Cc1ccccc1)NC(=O)OCc1ccccc1`
Resp: high

###

Would you mind telling me the reported inhibition of each entry?
- studySystem: Rhodesain (Trypanosoma brucei rhodesiense)
- assayProtocol: Inhibition of Trypanosoma brucei rhodesiense rhodesain at 20 uM using Cbz-Phe-Arg-AMC as substrate measured for 30 mins by fluorescence method relative to control
Write the value in % as a bare number.

Req: Checklist item: inhibition tested on Rhodesain (Trypanosoma brucei rhodesiense), entry `CCOC(=O)/C=C/[C@@H](O)[C@H](CCc1ccccc1)NC(=O)[C@H](Cc1ccccc1)NC(=O)N1CCOCC1` , value?
Resp: 99

Req: Tell me reported inhibition for `CCOC(=O)/C=C/[C@H](O)[C@H](CCc1ccccc1)C(=O)N[C@@H](Cc1ccccc1)C(=O)OCc1ccccc1` , tested with Rhodesain (Trypanosoma brucei rhodesiense).
Resp: 6

Req: Request body: readout inhibition, system Rhodesain (Trypanosoma brucei rhodesiense), query `CCOC(=O)/C=C/C(=O)[C@H](CC(C)C)NC(=O)[C@H](CC(C)C)NC(=O)N1CCOCC1` . Return the value.
Resp: 100

Req: Report inhibition for `CCOC(=O)/C=C/[C@H](O)[C@H](CCc1ccccc1)C(=O)N[C@@H](CC(C)C)C(=O)OCc1ccccc1` tested on Rhodesain (Trypanosoma brucei rhodesiense).
Resp: 2

Req: Hello, I am looking for reported inhibition with Rhodesain (Trypanosoma brucei rhodesiense) for `CCOC(=O)/C=C/C(=O)[C@H](CCc1ccccc1)NC(=O)[C@H](CC(C)C)NC(=O)N1CCOCC1` . Could you help?
Resp: 100

Req: Please provide the recorded inhibition for `CCOC(=O)/C=C/C(=O)[C@H](C)NC(=O)[C@H](Cc1ccccc1)NC(=O)OCc1ccccc1` , tested on Rhodesain (Trypanosoma brucei rhodesiense).
Resp: 100

Req: Report inhibition for `CCOC(=O)/C=C/C(=O)[C@H](CC(C)C)NC(=O)[C@H](Cc1ccccc1)NC(=O)OCc1ccccc1` tested on Rhodesain (Trypanosoma brucei rhodesiense).
Resp: 100

Req: Rhodesain (Trypanosoma brucei rhodesiense) / inhibition / `CCOC(=O)/C=C/C=C/C(=O)[C@H](CCc1ccccc1)NC(=O)[C@H](Cc1ccccc1)NC(=O)N1CCOCC1` : value?
Resp: 98

Req: // map `CCOC(=O)/C=C/[C@H](O)[C@H](CCc1ccccc1)NC(=O)[C@H](Cc1ccccc1)NC(=O)OCc1ccccc1` to recorded inhibition (system: Rhodesain (Trypanosoma brucei rhodesiense))
Resp: 32

Req: Form field - read-out: inhibition; system: Rhodesain (Trypanosoma brucei rhodesiense); submitted item: `CCOC(=O)/C=C/C(=O)[C@H](C)NC(=O)[C@H](CC(C)C)NC(=O)OCc1ccccc1`
Resp: 99

Req: Notebook entry, Rhodesain (Trypanosoma brucei rhodesiense) assay: inhibition of `CCOC(=O)/C=C/C(=O)[C@H](CCc1ccccc1)NC(=O)[C@H](CC(C)C)NC(=O)OCc1ccccc1` = ?
Resp: 98

Req: Record lookup: for Rhodesain (Trypanosoma brucei rhodesiense), what inhibition belongs to `CCOC(=O)/C=C/[C@H](O)[C@H](CCc1ccccc1)C(=O)N[C@@H](Cc1ccccc1)C(=O)OC` ?
Resp: 4

Req: Entry `CCOC(=O)/C=C/C(=O)[C@H](CCc1ccccc1)NC(=O)[C@H](Cc1ccccc1)NC(=O)N1CCOCC1` , system Rhodesain (Trypanosoma brucei rhodesiense): what inhibition was measured?
Resp: 100

Req: inhibition of `CCOC(=O)/C=C/[C@@H](O)[C@H](C)NC(=O)[C@H](Cc1ccccc1)NC(=O)OCc1ccccc1` on Rhodesain (Trypanosoma brucei rhodesiense)?
Resp: 63

Req: Rhodesain (Trypanosoma brucei rhodesiense) / inhibition / `O=C(O)/C=C/[C@@H](O)[C@H](CCc1ccccc1)NC(=O)[C@H](Cc1ccccc1)NC(=O)OCc1ccccc1` : value?
Resp: 24
